B1: tRNA (parent)
chain: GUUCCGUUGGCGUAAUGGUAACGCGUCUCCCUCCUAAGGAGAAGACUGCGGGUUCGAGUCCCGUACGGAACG

# Variants of: B1
# Assay: yeast fitness relative to wild type (ratio to wild type); higher = fitter; tRNA-Arg(CCU), competitive growth, 37 C, YPD
Fewer inactive variants are shown than the library holds.
We begin with a simple list: items and their reported yeast fitness.
Quantity Name: yeast fitness

1. C62U U64A    0.735
2. C11A U47G U64C    0.531
3. U8A G23A    0.597
4. U8A G18C C24A U32C A69U    0.565
5. C46U C62A    0.684
6. U13A A45U    1
7. U28A C29G G51A G56A G67C    0.585
8. C49U C61A    0.57
9. A21U C61U    0.709
